Tested on: SNU-398 (Hepatocellular Carcinoma)
test_protocol: combination Emax (second highest fraction inhibited in the dose matrix, 72 h); higher = more inhibition; extreme values may be limits of the assay
Record yes (1) whenever combination Emax is at 0.4 or higher; record no (0) when lower.

Prompt line: For this compound, is measured combination Emax 0.4 or higher? Cc1c2c(nn1C)CSCc1cc(n(C)n1)CSc1cc(c3ccccc3c1)OCCCc1c(C(=O)O)n(C)c3c-2c(Cl)ccc13 [AZD5991] + C=CCn1c(=O)c2cnc(Nc3ccc(N4CCN(C)CC4)cc3)nc2n1-c1cccc(C(C)(C)O)n1 [AZD1775] (first compound max 1 µM, partner max 1 µM)
Response line: yes (1)

Prompt line: For this compound, is measured combination Emax 0.4 or higher? COc1nnc2ccc(N3CCC(c4ccc(OCCN5CCN(C)C(=O)[C@H]5C)cc4)CC3)nn12 [AZD5153] + CCN(CCO)CCCOc1ccc2c(Nc3cc(CC(=O)Nc4cccc(F)c4)[nH]n3)ncnc2c1 [AZD2811] (first compound max 1 µM, 7x7, partner max 1 µM)
Response line: yes (1)

Prompt line: For this compound, is measured combination Emax 0.4 or higher? CN(CCO)CC[C@H](CSc1ccccc1)Nc1ccc(S(=O)(=O)NC(=O)c2ccc(N3CCC([C@@H](O)c4ccccc4-c4ccc(Cl)cc4)CC3)cc2)cc1S(=O)(=O)C(F)(F)F [AZD4320] + C[C@@H]1COCCN1C2=NC(=NC(=C2)C3(CC3)[S@](=N)(=O)C)C4=C5C=CNC5=NC=C4 [AZD6738] (first compound max 1 µM, 7x7, partner max 10 µM)
Response line: yes (1)

Prompt line: For this compound, is measured combination Emax 0.4 or higher? COc1cccc(OCCCN)c1-c1cc(Nc2cnc(C#N)cn2)n[nH]1 [Prexasertib] + O=C(c1cc(Cc2n[nH]c(=O)c3ccccc23)ccc1F)N1CCN(C(=O)C2CC2)CC1 [Olaparib] (first compound max 1 µM, 7x7, partner max 10 µM)
Response line: no (0)

Prompt line: For this compound, is measured combination Emax 0.4 or higher? COc1cccc(OCCCN)c1-c1cc(Nc2cnc(C#N)cn2)n[nH]1 [Prexasertib] + C=CCn1c(=O)c2cnc(Nc3ccc(N4CCN(C)CC4)cc3)nc2n1-c1cccc(C(C)(C)O)n1 [AZD1775] (first compound max 1 µM, partner max 1 µM)
Response line: yes (1)

Prompt line: For this compound, is measured combination Emax 0.4 or higher? CN(CCO)CC[C@H](CSc1ccccc1)Nc1ccc(S(=O)(=O)NC(=O)c2ccc(N3CCC([C@@H](O)c4ccccc4-c4ccc(Cl)cc4)CC3)cc2)cc1S(=O)(=O)C(F)(F)F [AZD4320] + C1CN(CCC1(C(=O)N[C@@H](CCO)C2=CC=C(C=C2)Cl)N)C3=NC=NC4=C3C=CN4 [Capivasertib] (first compound max 1 µM, 7x7, partner max 3 µM)
Response line: no (0)

Prompt line: For this compound, is measured combination Emax 0.4 or higher? CN(CCO)CC[C@H](CSc1ccccc1)Nc1ccc(S(=O)(=O)NC(=O)c2ccc(N3CCC([C@@H](O)c4ccccc4-c4ccc(Cl)cc4)CC3)cc2)cc1S(=O)(=O)C(F)(F)F [AZD4320] + Cc1cc2ncnn2cc1Nc1ncc2c(n1)n(C1CCOCC1)c(=O)n2C [AZD7648] (first compound max 1 µM, 7x7, partner max 10 µM)
Response line: no (0)
